Test system: IL-17 production in mouse splenocytes
Test: Suppressive effect on IL-17 production by IL-23 stimulation in mouse splenocytes
Type: cell-based
Details: Splenocyte, 72 h, at 5 μmol/L of the test compound, human IL-23 10 ng/mL, cultured 3 days, read-out: IL-17 production inhibition rate (%)
Readout type: inhibition at 5 µM (%)

{"Compound": "CC(=O)N1CCCC[C@@H]1C(=O)Nc1cc(Cl)c2c(c1)CCN2Cc1cccc(C(F)(F)F)c1", "Measured target": "IL-17 production in mouse splenocytes", "Unit text": "%", "Measurement": 87.5}
{"Compound": "CC(=O)N1CCCCC1C(=O)Nc1cc(Cl)c2c(c1)CCN2Cc1ccc(C(F)(F)F)cc1 (stereo not shown)", "Measured target": "IL-17 production in mouse splenocytes", "Unit text": "%", "Measurement": 99.5}
{"Compound": "CC(=O)N1CCCC[C@@H]1C(=O)Nc1cc(Cl)c2c(c1)CCN2Cc1ccc(OC(F)(F)F)cc1", "Measured target": "IL-17 production in mouse splenocytes", "Unit text": "%", "Measurement": 100}
{"Compound": "CC(=O)N1CCCC[C@@H]1C(=O)Nc1cc(Cl)c2c(c1)CCN(Cc1ccc(C(F)(F)F)cc1)C2", "Measured target": "IL-17 production in mouse splenocytes", "Unit text": "%", "Measurement": 99.7}
{"Compound": "CC(=O)N1CCCC[C@@H]1C(=O)Nc1cc(Cl)c2c(c1)CCN2C[C@H]1CC[C@H](C(F)(F)F)CC1", "Measured target": "IL-17 production in mouse splenocytes", "Unit text": "%", "Measurement": 99.5}
{"Compound": "CC(=O)N1CCCC[C@@H]1C(=O)Nc1cc(Cl)c2c(c1)CCN2Cc1ccccc1C(F)(F)F", "Measured target": "IL-17 production in mouse splenocytes", "Unit text": "%", "Measurement": 91.6}
{"Compound": "CC(=O)N1CCCC[C@@H]1C(=O)Nc1cc(Cl)c2c(c1)CCCN2Cc1ccc(C(F)(F)F)cc1", "Measured target": "IL-17 production in mouse splenocytes", "Unit text": "%", "Measurement": 98}

---

Molecular target: RORγ-LBD (GST-fused ligand-binding domain of RORγ) / coactivator TRAP220/DRIP-2 (Homo sapiens)
Construct: purchased Invitrogen
Sequence (P51449 269-508 limits assumed): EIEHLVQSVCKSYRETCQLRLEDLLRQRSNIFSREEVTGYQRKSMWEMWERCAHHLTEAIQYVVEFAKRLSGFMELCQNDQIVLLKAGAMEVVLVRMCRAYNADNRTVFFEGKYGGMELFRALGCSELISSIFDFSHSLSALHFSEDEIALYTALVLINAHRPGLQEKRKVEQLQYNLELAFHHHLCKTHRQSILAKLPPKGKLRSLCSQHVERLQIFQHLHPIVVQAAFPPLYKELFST
Experiment: Inhibitory effect on RORγ-coactivator binding (LanthaScreen TR-FRET RORγ Coactivator Assay)
Assay type: biochemical
Conditions: at 33 μmol/L of the test compound; read-out: RORγ-coactivator binding inhibition rate (%)
Below is a list of entries, each paired with its recorded inhibition at 33 µM value.

{"Compound": "CC(=O)N1CCCC[C@@H]1C(=O)Nc1cc(Cl)c2c(c1)CCN(Cc1ccc(C(F)(F)F)cc1)C2 [Example 3]", "inhibition at 33 µM": "99.5%"}
{"Compound": "CC(=O)N1CCCC[C@@H]1C(=O)Nc1cc(Cl)c2c(c1)CCCN2Cc1ccc(C(F)(F)F)cc1 [Example 1]", "inhibition at 33 µM": "96.9%"}
{"Compound": "CC(=O)N1CCCC[C@@H]1C(=O)Nc1cc(Cl)c2c(c1)CCN2C[C@H]1CC[C@H](C(F)(F)F)CC1 [Example 9]", "inhibition at 33 µM": "96.8%"}
{"Compound": "CC(=O)N1CCCC[C@@H]1C(=O)Nc1cc(Cl)c2c(c1)CCN2CCc1ccc(C(F)(F)F)cc1 [Example 7]", "inhibition at 33 µM": "96%"}
{"Compound": "CC(=O)N1CCCC[C@@H]1C(=O)Nc1cc(Cl)c2c(c1)CCN2Cc1ccccc1C(F)(F)F [Example 6]", "inhibition at 33 µM": "85.2%"}
{"Compound": "CC(=O)N1CCCC[C@@H]1C(=O)Nc1cc(Cl)c2c(c1)CCN2Cc1cccc(C(F)(F)F)c1 [Example 5]", "inhibition at 33 µM": "87.9%"}
{"Compound": "CC(=O)N1CCCC[C@@H]1C(=O)Nc1cc(Cl)c2c(c1)CCN2Cc1ccc(C(F)(F)F)cc1 [Example 4]", "inhibition at 33 µM": "96.7%"}
{"Compound": "CC(=O)N1CCCC[C@@H]1C(=O)Nc1ccc2c(c1)CCCN2Cc1ccc(C(F)(F)F)cc1 [Example 2]", "inhibition at 33 µM": "94.3%"}
{"Compound": "CC(=O)N1CCCCC1C(=O)Nc1cc(Cl)c2c(c1)CCN2Cc1ccc(C(F)(F)F)cc1 (stereo not shown) [Example 10]", "inhibition at 33 µM": "99.8%"}
{"Compound": "CC(=O)N1CCCC[C@@H]1C(=O)Nc1cc(Cl)c2c(c1)CCN2Cc1ccc(OC(F)(F)F)cc1 [Example 8]", "inhibition at 33 µM": "99.4%"}

---

Catalogue of inhibition at 5 µM readings, one per entry.
Tested on: IL-17 production in mouse splenocytes
Assay: Suppressive effect on IL-17 production by IL-23 stimulation in mouse splenocytes
Format: cell-based
Settings: Splenocyte, 72 h, at 5 μmol/L of the test compound, human IL-23 10 ng/mL, cultured 3 days, read-out: IL-17 production inhibition rate (%)
Method: Using mouse splenocytes, the suppressive effect of the cyclic amine derivative (I) or a pharmacologically acceptable salt thereof on IL-17 production by IL-23 stimulation was evaluated by a partially modified method mentioned in The Journal of Biological Chemistry, 2003, Vol. 278, No. 3, p. 1910-1914. […] The IL-17 production inhibition rate (%) was calculated from Formula (2). […]

{"Molecule": "CC(=O)N1CCCC[C@@H]1C(=O)Nc1cc(Cl)c2c(c1)CCN2CCc1ccc(C(F)(F)F)cc1 [Example 7]", "inhibition at 5 µM / %": 98.6}
{"Molecule": "CC(=O)N1CCCC[C@@H]1C(=O)Nc1cc(Cl)c2c(c1)CCN2Cc1ccc(C(F)(F)F)cc1 [Example 4]", "inhibition at 5 µM / %": 99.9}
{"Molecule": "CC(=O)N1CCCC[C@@H]1C(=O)Nc1ccc2c(c1)CCCN2Cc1ccc(C(F)(F)F)cc1 [Example 2]", "inhibition at 5 µM / %": 98.4}
